Assay: Long-term/accelerated stability (sealed, 25° C./60% RH and 40° C./75% RH)
Details: 25° C., 60% RH, sealed, 6 months
measured.metric: Purity % (%)

CCO[C@H]1C[C@H]2CC[C@@](c3ccc(C(=O)O)cc3)(C1)N2Cc1c(OC)cc(C)c2[nH]ccc12.Cl [crystal form II of the hydrochloride] :: 100.0
CCO[C@H]1C[C@H]2CC[C@@](c3ccc(C(=O)O)cc3)(C1)N2Cc1c(OC)cc(C)c2[nH]ccc12.O=C(O)/C=C/C(=O)O [crystal form I of the fumarate] :: 99.9
CCO[C@H]1C[C@H]2CC[C@@](c3ccc(C(=O)O)cc3)(C1)N2Cc1c(OC)cc(C)c2[nH]ccc12.Cl [crystal form III of the hydrochloride] :: 99.6
CCO[C@H]1C[C@H]2CC[C@@](c3ccc(C(=O)O)cc3)(C1)N2Cc1c(OC)cc(C)c2[nH]ccc12.Cc1ccc(S(=O)(=O)O)cc1 [crystal form I of the p-toluenesulfonate] :: 100.0

Values were extracted from patent US20250382287A1.
